AC50 reference
# system_name: PKR(G332S) (Homo sapiens, UniProt P30613, G332S)
# Sequence (P30613 whole entry G332S): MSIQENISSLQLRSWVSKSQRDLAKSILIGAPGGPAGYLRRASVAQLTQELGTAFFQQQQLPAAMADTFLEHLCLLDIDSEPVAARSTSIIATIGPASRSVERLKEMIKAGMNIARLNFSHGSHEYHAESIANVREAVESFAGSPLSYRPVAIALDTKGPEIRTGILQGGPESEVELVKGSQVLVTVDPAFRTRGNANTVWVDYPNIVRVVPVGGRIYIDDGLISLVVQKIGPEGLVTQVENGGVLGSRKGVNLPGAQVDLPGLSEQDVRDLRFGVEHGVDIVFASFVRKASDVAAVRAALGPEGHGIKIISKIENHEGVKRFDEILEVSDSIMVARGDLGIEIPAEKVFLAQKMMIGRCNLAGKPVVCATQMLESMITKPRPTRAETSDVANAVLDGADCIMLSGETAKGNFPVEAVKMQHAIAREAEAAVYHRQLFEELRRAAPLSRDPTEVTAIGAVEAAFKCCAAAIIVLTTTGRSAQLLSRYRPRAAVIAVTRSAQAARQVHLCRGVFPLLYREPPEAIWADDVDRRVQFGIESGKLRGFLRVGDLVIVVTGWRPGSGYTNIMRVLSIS
# test_protocol: Luminescence Biochemical Assay (Kinase Glo Plus), PKR G332S mutant
# particulars: with FBP, read-out: AC50 LUM KGP FBP AC50 μM gmean (column A)

Recorded results for 5 compounds are shown here.
- COc1cccc(CNC(=O)N2CC3=C(C2)CN(S(=O)(=O)c2ccc4ncsc4c2)C3)c1: ≤ 0.1 µM
- O=C([C@@H](O)c1ccc2c(c1)NCCO2)N1CC2=C(C1)CN(S(=O)(=O)c1ccc(OC(F)F)cc1)C2 (single isomer, unassigned): ≤ 0.1 µM
- O=C(NCc1ccc(F)cc1)N1CC2=C(C1)CN(S(=O)(=O)c1ccc(F)cc1)C2: ≤ 0.1 µM
- O=C([C@H](O)c1ccc(F)cc1)N1CC2=C(C1)CN(S(=O)(=O)c1ccc(OC(F)F)cc1)C2: ≤ 0.1 µM
- COc1cc(Cl)ccc1S(=O)(=O)N1CC2=C(CN(C(=O)[C@H](O)c3ccccc3)C2)C1: 1 to 40 µM

Endpoint output: AC50 of Cc1noc(C)c1S(=O)(=O)N1CC2=C(CN(C(=O)[C@H](O)c3ccccc3)C2)C1 . Value?
1 to 40 µM

// lookup AC50 for O=C(NCc1ccc(F)cc1)N1CC2=C(C1)CN(S(=O)(=O)c1cccc3cnccc13)C2
1 to 40 µM
